Target: T1, human IL-23R endogenously expressed on DB cells (CRL-2289) (human, UniProt Q5VWK5 24-629)
T1 sequence (looked up): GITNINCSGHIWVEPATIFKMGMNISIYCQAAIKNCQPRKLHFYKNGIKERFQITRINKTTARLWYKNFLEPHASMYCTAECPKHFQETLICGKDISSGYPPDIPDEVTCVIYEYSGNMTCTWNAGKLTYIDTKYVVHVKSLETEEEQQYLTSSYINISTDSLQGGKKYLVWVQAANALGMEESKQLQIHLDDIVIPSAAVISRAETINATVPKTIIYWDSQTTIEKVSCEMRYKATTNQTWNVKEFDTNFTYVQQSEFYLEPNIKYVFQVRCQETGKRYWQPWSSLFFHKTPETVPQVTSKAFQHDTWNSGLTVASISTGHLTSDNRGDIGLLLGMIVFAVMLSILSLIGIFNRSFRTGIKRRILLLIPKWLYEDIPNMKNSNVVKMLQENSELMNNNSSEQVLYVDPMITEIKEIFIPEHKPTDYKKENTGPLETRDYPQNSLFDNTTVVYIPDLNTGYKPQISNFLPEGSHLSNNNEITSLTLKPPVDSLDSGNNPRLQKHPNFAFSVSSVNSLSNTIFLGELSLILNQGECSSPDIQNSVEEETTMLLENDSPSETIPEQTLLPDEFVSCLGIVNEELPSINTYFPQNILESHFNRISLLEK
Test: cell-based or functional assay
Bridges are numbered along the chain shown (N, C = ends). 1,3‑dibromopropan‑2‑one = linker (CAS 816-39-7) joining two Cys as 1,3-dithio-propan-2-one bridge -SCH2C(=O)CH2S-
Give measured IC50 (pSTAT3) for each item. Keep answers brief.

Ask: Which IC50 (pSTAT3) value belongs to Ac-DECWQCWWLKR-NH2 (lactam 2-10; linker 3-6 via 1,3‑dibromopropan‑2‑one) [Ref 5] ?
Result: > 1 µM

Ask: IC50 (pSTAT3) for Ac-DESCWQCWWKR-NH2 (lactam 2-10; linker 4-7 via 1,3‑dibromopropan‑2‑one) [Ref 7] ?
Result: > 1 µM

Ask: Give the measured IC50 (pSTAT3) of H-DCSEWQKWWLCR-NH2 (linker 2-11 via 1,3‑dibromopropan‑2‑one; lactam 4-7) [Compound 5] .
Result: > 1 µM

Data origin, for the record: patent US20250154198A1
